- TARGET_SYSTEM: hCA XII (Homo sapiens, UniProt O43570)
- Construct: made in house
- Sequence (O43570 25-354): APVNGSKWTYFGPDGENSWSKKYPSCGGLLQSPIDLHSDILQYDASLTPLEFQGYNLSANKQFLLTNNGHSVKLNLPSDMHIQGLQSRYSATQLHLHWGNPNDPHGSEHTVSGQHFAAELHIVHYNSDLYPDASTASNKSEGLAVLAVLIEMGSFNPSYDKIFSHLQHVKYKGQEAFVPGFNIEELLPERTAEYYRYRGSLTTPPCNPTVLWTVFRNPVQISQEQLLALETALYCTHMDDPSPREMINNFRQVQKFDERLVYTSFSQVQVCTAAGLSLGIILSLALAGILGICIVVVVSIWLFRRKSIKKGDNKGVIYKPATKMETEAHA
- ASSAY_PROTOCOL: hCA XII inhibition, stopped-flow CO2 hydration assay
- Type: biochemical
- EXPERIMENTAL_SETUP: Ki hCA I or II (nM)/Ki hCA XII (nM)
ASSAY_READOUT: SI hCA XII over hCA I or hCA II

CCC(C)C(NC(=O)OCc1ccccc1)C(=O)Nc1ccc2c(COC)cc(=O)oc2c1 (centres unmarked) [Compound 8, Z-Ile-AMMC]: >241.0
CC(=O)N[C@@H](C)C(=O)Nc1ccc2c(C)cc(=O)oc2c1 [Compound 6, Ac-Ala-AMC]: >327.9
COCc1cc(=O)oc2cc(NC(=O)[C@H](C)NC(=O)N[C@@H](C)C(=O)OC)ccc12 [Compound 20, MeO-Ala-CO-Ala-AMMC]: >182.8
COC(=O)[C@H](Cc1ccccc1)NC(=O)N[C@@H](C)C(=O)Nc1ccc2c(C)cc(=O)oc2c1 [Compound 18, MeO-Phe-CO-Ala-AMC]: >250.0
Cc1cc(=O)oc2cc(NC(=O)[C@H](C)NC(=O)OCc3ccccc3)ccc12 [Compound 1, Z-Ala-AMC]: >90.9
COC(=O)CNC(=O)N[C@@H](C)C(=O)Nc1ccc2c(C)cc(=O)oc2c1 [Compound 16, MeO-Gly-CO-Ala-AMC]: >261.8

Req: API: value(readout= SI hCA XII over hCA I or hCA II, system= hCA XII (Homo sapiens, UniProt O43570), query= COCc1cc(=O)oc2cc(NC(=O)[C@H](C)NC(C)=O)ccc12 [Compound 7, Ac-Ala-AMMC] )
Resp: >213.7

Req: Form field: SI hCA XII over hCA I or hCA II recorded for COC(=O)[C@H](C)NC(=O)N[C@@H](C)C(=O)Nc1ccc2c(C)cc(=O)oc2c1 [Compound 17, MeO-Ala-CO-Ala-AMC] with hCA XII (Homo sapiens, UniProt O43570) (enter value)
Resp: >1041.7

Req: What value of SI hCA XII over hCA I or hCA II on hCA XII (Homo sapiens, UniProt O43570) does COCc1cc(=O)oc2cc(NC(=O)[C@@H](NC(=O)[C@H](C)NC(=O)OCc3ccccc3)C(C)(C)C)ccc12 [Compound 11, Z-Ala-tLeu-AMMC] have?
Resp: >29.7

Req: Hi! What's the reported SI hCA XII over hCA I or hCA II for Cc1cc(=O)oc2cc(NC(=O)[C@H](C)NC(=O)OCC3c4ccccc4-c4ccccc43)ccc12 [Compound 2, Fmoc-Ala-AMC] on hCA XII (Homo sapiens, UniProt O43570)?
Resp: >268.8

Req: Observed SI hCA XII over hCA I or hCA II on hCA XII (Homo sapiens, UniProt O43570) for CCOC(=O)CCNC(=O)N[C@@H](C)C(=O)Nc1ccc2c(C)cc(=O)oc2c1 [Compound 19, EtO-βAla-CO-Ala-AMC] , please.
Resp: >1052.6

Every entry's value here was drawn from paper PMC9692511.
